Ref: patent US8367838B2

assay.target: mGlyT-1b (Mus musculus)
Construct: host or cells: Flp-in-CHO
method.notes: Glycine uptake inhibition assay (mGlyT-1b), [3H]-glycine uptake in transfected Flp-in-CHO cells
Format: cell-based
condition.info: Flp-in-CHO cells transfected with mGlyT-1b cDNA; [3H]-glycine 60 nM and 25 μM non-radioactive glycine; 20 min preincubation at 22° C.; read-out: IC50 (μM) at GlyT-1; Ic50 (hglyt1b)
Structures can show the parent of a compound that is named as a salt.
Simple rule here: IC50 less than 0.3 µM is class 1, otherwise class 0.

compound: Cc1ccc([C@H](N)[C@H](O)c2ccc(-c3cccnc3)cc2)cc1F (racemic) [Example 91]
class.label: class 1

compound: N[C@@H](c1ccc(Cl)c(Cl)c1)[C@H](O)c1ccc(OC2CCOCC2)c(F)c1 (racemic) [Example 18, hydrochloride]
class.label: class 1

compound: N[C@@H](c1ccc(Cl)cc1)[C@H](O)c1ccc(OCC(F)(F)C(F)(F)F)cc1F (racemic) [Example 101]
class.label: class 0

compound: COc1cccc(-c2cnc([C@@H](O)[C@@H](N)c3ccc(Cl)c(Cl)c3)c(F)c2)c1 (racemic) [Example 13, dihydrochloride]
class.label: class 1

compound: CS(=O)(=O)c1cccc(-c2ccc([C@@H](O)[C@@H](N)c3ccc(Cl)c(Cl)c3)c(F)c2)c1 (racemic) [Example 1]
class.label: class 1

compound: CCC(C)Oc1ccc([C@@H](O)[C@@H](N)c2ccc(Cl)c(Cl)c2)cc1 (mixture of isomers) [Example 51]
class.label: class 0

====

assay.target: mGlyT-1b (Mus musculus, UniProt P28571)
Construct: host or cells: Flp-in-CHO
Sequence (P28571 1-651 isoform P28571-2): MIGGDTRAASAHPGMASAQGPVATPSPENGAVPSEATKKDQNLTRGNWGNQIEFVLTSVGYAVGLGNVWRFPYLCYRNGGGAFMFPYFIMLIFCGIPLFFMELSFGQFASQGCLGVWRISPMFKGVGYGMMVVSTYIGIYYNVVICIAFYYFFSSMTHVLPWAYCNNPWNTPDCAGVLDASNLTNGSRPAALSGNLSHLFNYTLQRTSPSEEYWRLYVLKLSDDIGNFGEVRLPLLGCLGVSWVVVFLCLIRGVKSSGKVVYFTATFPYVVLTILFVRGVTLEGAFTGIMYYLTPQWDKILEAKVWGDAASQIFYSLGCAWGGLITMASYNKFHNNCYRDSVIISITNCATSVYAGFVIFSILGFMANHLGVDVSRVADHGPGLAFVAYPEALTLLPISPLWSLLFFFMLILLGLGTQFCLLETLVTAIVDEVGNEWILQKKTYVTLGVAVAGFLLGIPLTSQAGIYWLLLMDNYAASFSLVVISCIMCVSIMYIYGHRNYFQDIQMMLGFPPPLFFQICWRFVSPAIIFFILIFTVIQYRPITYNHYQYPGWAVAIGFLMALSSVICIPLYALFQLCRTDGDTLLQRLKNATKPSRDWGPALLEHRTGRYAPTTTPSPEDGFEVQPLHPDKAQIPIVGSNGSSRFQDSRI
method.notes: Glycine uptake inhibition assay (mGlyT-1b), [3H]-glycine uptake in transfected Flp-in-CHO cells
Format: cell-based
condition.info: Flp-in-CHO cells transfected with mGlyT-1b cDNA; [3H]-glycine 60 nM and 25 μM non-radioactive glycine; 20 min preincubation at 22° C.; read-out: IC50 (μM) at GlyT-1; Ic50 (hglyt1b)
Where a name gives a salt, the structure may show the parent alone.
Reported IC50 values are given for each entry in this list.

compound: N[C@@H](c1ccc(Cl)cc1)[C@H](O)c1ccc(-c2ccccc2F)cc1 (racemic)
unit.label: µM
IC50: 0.18
--
compound: COc1cc(-c2cncc(F)c2)ccc1[C@@H](O)[C@@H](N)c1ccc(Cl)c(Cl)c1 (racemic) [Example 4, dihydrochloride]
unit.label: µM
IC50: 0.346
--
compound: Cc1nc(OC2CCOCC2)ccc1[C@@H](O)[C@@H](N)c1ccc(Cl)c(Cl)c1 (racemic) [Example 17, dihydrochloride]
unit.label: µM
IC50: 0.043
--
compound: N[C@@H](c1ccc(Cl)c(Cl)c1)[C@H](O)c1ccc(-c2cncc(F)c2)cc1 (single isomer, unassigned) [Example 8]
unit.label: µM
IC50: 0.059
--
compound: N[C@@H](c1ccc(Cl)cc1)[C@H](O)c1ccc(-c2cncc(F)c2)cc1 (racemic)
unit.label: µM
IC50: 0.152
--
compound: N[C@@H](c1ccc(Cl)cc1)[C@H](O)c1ccc(-c2ccncc2)cc1 (racemic)
unit.label: µM
IC50: 0.06
--
compound: N[C@@H](c1ccc(Cl)c(Cl)c1)[C@H](O)c1ccc(-c2cncc(F)c2)cn1 (racemic) [Example 12, trihydrochloride]
unit.label: µM
IC50: 0.148
